# credit: patent US20130309248A1

target: full-length recombinant H3 HA (A/Wisconsin/67/2005) on PER.C6 cells (influenza A virus (H3N2)); experiment: FACS, IgG 5 µg/ml, HA-expressing PER.C6 cells; untransfected MFI 4
Measurement kind: MFI

The cases that follow already have their MFI on record.
CR8052 (antibody, V domains shown) VH: DIQLTQSPSSLSASVGDRVTITCRASQGINTYLNWYQQKPGKAPKVLIFAASTLQSGVPSRFSGSGSGTEFTLNINNLQPEDFATYYCQQSYSTAIT VL: EVQLVESGGGVVQPGRSLRLSCAASGFSFTTYGMHWVRQAPGKGLEWVAFIWYDGSNKHYQDSVKGRFTISKDNSNNMLYLQMDSLRVADTAVYYCVRDGGYSTWEWYFDL :: 364 MFI
CR8001 (antibody, V domains shown) VH: EVQLVESGGGLIQPGGSLRLSCAASGFTVSSNYVSWVRQAPGKGLEWLSLIYTGGTTYYADSVKGRFTISRDNSKNTVFLQMNSLRAEDAAMYYCARVSALRFLQWPNYAMDV VL: QSALTQPASVSGSPGRSITISCSGTRSDVGGHNYVSWYQQHPGKAPKLMIYEVSHRPSGVSNRFSGSKSGSTASLTISGLQSEDEADYYCSSYTGEGPLGV :: 763 MFI

**Q:** Value lookup for MFI; key = CR8041 (antibody, V domains shown) VH: QVQLVQSGAEVKKPGASVKVSCQASGYTFTSFGLSWVRQAPGQGPEWMGWISAYNGEIKYAQKFQGRVSMTTDTSTRTAYMEVRSLRPDDTAVYYCAREPPLYFSSWSLDF VL: EIVLTQSPGTLSLSPGERATLSCRASQSVSSNYLAWFQQKPGQAPRLLIYGASRRATGIPDRFSGSGSGTDFTLTISRLEPEDFAVYYCQQYDSSPRT
**A:** 364 MFI

**Q:** Would you mind doing CR8039 (antibody, V domains shown) VH: QLQLQESGPGLVKPSETLSLTCTVSGGSIGSYYWSWIRQPPGKGLEWIGYIYYRGGTSYNPSLKSRVTISVDTSKSQFTLKLNSVTAADTAVYYCARKDWGSAAGSVWYFDL VL: QSALTQPPSASGSPGQSVTISCTGTSSDVGGYNYVSWYQQHPGKAPKLMIREVSKRPSGVPDRFSGSKSGNTASLTVSGLQAEDEAEYYCSSYAGSNNLI as well?
**A:** 503 MFI
